// data source = paper PMC11995866

Entries and their measured Kd follow.
target: Synechocystis halorhodopsin (SyHR) (Synechocystis sp. PCC 7509, UniProt A0A9X9ZA75, H167A); construct: codon-optimised, C-terminal His6 tag, pET21a, E. coli BL21(DE3) with all-trans retinal; HisTrap-purified in DDM; assay: absorption spectral shift titration (UV-visible), single-site Hill fit; type: binding
Sequence (A0A9X9ZA75 1-234 H167A): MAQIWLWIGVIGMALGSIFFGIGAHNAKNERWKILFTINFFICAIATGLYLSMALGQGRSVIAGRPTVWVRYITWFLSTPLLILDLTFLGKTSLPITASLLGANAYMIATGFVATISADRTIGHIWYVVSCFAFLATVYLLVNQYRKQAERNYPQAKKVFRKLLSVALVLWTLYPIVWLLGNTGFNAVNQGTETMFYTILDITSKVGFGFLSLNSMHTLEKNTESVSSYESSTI
// units = mM; emit number, no label

{"Smiles Str": "Cl", "Endpoint Unit": "mM", "Kd": 0.36}

Okay, next one:
Prompt: Name the recorded Kd for O=S(=O)(O)O .
Completion: 6.5
